Attribution: paper PMC6427912

System: B. subtilis
ASSAY DETAILS: B. subtilis growth inhibition assay
Format: cell-based, Bacillus subtilis
PROTOCOL CONDITIONS: value in parentheses
VALUE TYPE: Bs ED50 (µM)

[[record]]
molecule = "CC(C)CCCC(C)CCSc1cc[n+](CC(P(=O)([O-])O)P(=O)(O)O)cc1 (stereo not drawn)"
value_type = "Bs ED50"
unit_of_measure = "µM"
observed = 16

[[record]]
molecule = "CCCCCCCCCCCCCc1ccc[n+](CC(P(=O)([O-])O)P(=O)(O)O)c1 (stereo not drawn)"
value_type = "Bs ED50"
unit_of_measure = "µM"
observed = 12

[[record]]
molecule = "CC(C)CCCC(C)CCCc1cc[n+](CC(P(=O)([O-])O)P(=O)(O)O)cc1 (stereo not drawn)"
value_type = "Bs ED50"
unit_of_measure = "µM"
observed = 7.4

[[record]]
molecule = "CC(C)CCCC(C)CCCC(C)CCOc1ccc[n+](CC(P(=O)([O-])O)P(=O)(O)O)c1 (stereo not drawn)"
value_type = "Bs ED50"
unit_of_measure = "µM"
observed = 73

[[record]]
molecule = "CC(C)CCCC(C)CCNc1ccc[n+](CC(P(=O)([O-])O)P(=O)(O)O)c1 (stereo not drawn)"
value_type = "Bs ED50"
unit_of_measure = "µM"
observed = 5.7

[[record]]
molecule = "CC(C)CCCC(C)CCOc1ccc[n+](CC(P(=O)([O-])O)P(=O)(O)O)c1 (stereo not drawn)"
value_type = "Bs ED50"
unit_of_measure = "µM"
observed = 2.4

[[record]]
molecule = "CC(C)CCCC(C)CCOc1cccc(NCC(P(=O)(O)O)P(=O)(O)O)n1 (stereo not drawn)"
value_type = "Bs ED50"
unit_of_measure = "µM"
observed = 170

[[record]]
molecule = "O=P(O)(O)C(CNc1nccs1)P(=O)(O)O"
value_type = "Bs ED50"
unit_of_measure = "µM"
observed = 340

[[record]]
molecule = "CC(C)CCCC(C)CCc1csc(NCC(P(=O)(O)O)P(=O)(O)O)n1 (stereo not drawn)"
value_type = "Bs ED50"
unit_of_measure = "µM"
observed = 19


###

Tested on: S. aureus
ASSAY DETAILS: S. aureus growth inhibition assay
Format: cell-based, Staphylococcus aureus
PROTOCOL CONDITIONS: S. aureus growth inhibition, value in parentheses
Classify as follows. Reported Sa ED50 greater than or equal to 70 µM: 1. Reported Sa ED50 below: 0.

[[record]]
compound = "CC(C)CCOc1ccc[n+](CC(P(=O)([O-])O)P(=O)(O)O)c1 (centres unmarked)"
classification = 0

[[record]]
compound = "CC(C)CCCC(C)CCOc1cc(NCC(P(=O)(O)O)P(=O)(O)O)ccn1 (centres unmarked)"
classification = 1

[[record]]
compound = "CC(C)CCCC(C)CCNc1ccc[n+](CC(P(=O)([O-])O)P(=O)(O)O)c1 (centres unmarked)"
classification = 0

[[record]]
compound = "CC(C)CCCC(C)c1cnc(NCC(P(=O)(O)O)P(=O)(O)O)s1 (centres unmarked)"
classification = 1

[[record]]
compound = "CC(C)CCCC(C)CCCc1cc[n+](CC(P(=O)([O-])O)P(=O)(O)O)cc1 (centres unmarked)"
classification = 0

[[record]]
compound = "CC(C)CCCC(C)CCOc1cc[n+](CC(P(=O)([O-])O)P(=O)(O)O)cc1 (centres unmarked)"
classification = 0

[[record]]
compound = "CC(C)CCCC(C)CCOc1ccc[n+](CC(P(=O)([O-])O)P(=O)(O)O)c1 (centres unmarked)"
classification = 0

[[record]]
compound = "CC(C)CCCC(C)CCOc1ccnc(NC(P(=O)(O)O)P(=O)(O)O)c1 (centres unmarked)"
classification = 1

[[record]]
compound = "CCCCCCCCCCCc1ccc[n+](CC(P(=O)([O-])O)P(=O)(O)O)c1 (centres unmarked)"
classification = 0

[[record]]
compound = "CC(C)CCCC(C)CCOc1cccc(NCC(P(=O)(O)O)P(=O)(O)O)n1 (centres unmarked)"
classification = 1

[[record]]
compound = "CC(C)CCCC(C)CCc1cnc(NCC(P(=O)(O)O)P(=O)(O)O)s1 (centres unmarked)"
classification = 1

[[record]]
compound = "CC(C)CCCC(C)CCCc1ccc[n+](CC(P(=O)([O-])O)P(=O)(O)O)c1 (centres unmarked)"
classification = 0

[[record]]
compound = "CC(C)CCCC(C)CCCC(C)CCOc1ccc[n+](CC(P(=O)([O-])O)P(=O)(O)O)c1 (centres unmarked)"
classification = 0

[[record]]
compound = "CC(C)CCCC(C)CCOc1ccnc(NCC(P(=O)(O)O)P(=O)(O)O)c1 (centres unmarked)"
classification = 1

[[record]]
compound = "O=P(O)(O)C(O)(Cc1cccc(-c2cccc3c2oc2ccccc23)c1)P(=O)(O)O"
classification = 0

[[record]]
compound = "CC(C)CCCC(C)CCSc1ccc[n+](CC(P(=O)([O-])O)P(=O)(O)O)c1 (centres unmarked)"
classification = 0

[[record]]
compound = "CC(C)CCCC(C)CCn1cc[n+](CC(P(=O)([O-])O)P(=O)(O)O)c1 (centres unmarked)"
classification = 1

[[record]]
compound = "O=P(O)(O)C(CNc1nccs1)P(=O)(O)O"
classification = 1

[[record]]
compound = "CC(C)CCCC(C)CCc1csc(NCC(P(=O)(O)O)P(=O)(O)O)n1 (centres unmarked)"
classification = 0

[[record]]
compound = "CCCCCCCCCCCCCc1ccc[n+](CC(P(=O)([O-])O)P(=O)(O)O)c1 (centres unmarked)"
classification = 0

[[record]]
compound = "CC(C)CCCC(C)CCCC(C)CCCC(C)CCOc1ccc[n+](CC(P(=O)([O-])O)P(=O)(O)O)c1 (centres unmarked)"
classification = 0

[[record]]
compound = "CC(C)CCCC(C)CCCn1cc[n+](CC(P(=O)([O-])O)P(=O)(O)O)c1 (centres unmarked)"
classification = 0


###

Reported values of Ms ED50 for individual entries
System: Mycobacterium smegmatis
ASSAY DETAILS: M. smegmatis growth inhibition assay
Format: cell-based
PROTOCOL CONDITIONS: 48 hours
VALUE TYPE: Ms ED50 (µg/mL)

[[record]]
molecule = "CC(C)CCCC(C)CCOc1ccnc(NCC(P(=O)(O)O)P(=O)(O)O)c1 (centres unmarked)"
value_type = "Ms ED50"
observed = 100

[[record]]
molecule = "CCCCCCCCCCCc1ccc[n+](CC(P(=O)([O-])O)P(=O)(O)O)c1 (centres unmarked)"
value_type = "Ms ED50"
observed = 6.1

[[record]]
molecule = "CC(C)CCCC(C)CCOc1ccnc(NC(P(=O)(O)O)P(=O)(O)O)c1 (centres unmarked)"
value_type = "Ms ED50"
observed = 79

[[record]]
molecule = "CC(C)CCCC(C)c1cnc(NCC(P(=O)(O)O)P(=O)(O)O)s1 (centres unmarked)"
value_type = "Ms ED50"
observed = 96

[[record]]
molecule = "CC(C)CCCC(C)CCOc1cc[n+](CC(P(=O)([O-])O)P(=O)(O)O)cc1 (centres unmarked)"
value_type = "Ms ED50"
observed = 150


###

Tested on: B. subtilis
ASSAY DETAILS: B. subtilis growth inhibition assay
Type: cell-based, Bacillus subtilis
PROTOCOL CONDITIONS: value in parentheses
VALUE TYPE: Bs ED50 (µM)

[[record]]
molecule = "CC(C)CCCC(C)CCOc1ccnc(NCC(P(=O)(O)O)P(=O)(O)O)c1 (centres unmarked)"
value_type = "Bs ED50"
unit_of_measure = "µM"
observed = 420

[[record]]
molecule = "CC(C)CCCC(C)CCc1cnc(NCC(P(=O)(O)O)P(=O)(O)O)s1 (centres unmarked)"
value_type = "Bs ED50"
unit_of_measure = "µM"
observed = 49

[[record]]
molecule = "CC(C)CCCC(C)CCSc1ccc[n+](CC(P(=O)([O-])O)P(=O)(O)O)c1 (centres unmarked)"
value_type = "Bs ED50"
unit_of_measure = "µM"
observed = 6.4

[[record]]
molecule = "CC(C)CCCC(C)CCCn1cc[n+](CC(P(=O)([O-])O)P(=O)(O)O)c1 (centres unmarked)"
value_type = "Bs ED50"
unit_of_measure = "µM"
observed = 4.1

[[record]]
molecule = "CC(C)CCCC(C)CCCC(C)CCCC(C)CCOc1ccc[n+](CC(P(=O)([O-])O)P(=O)(O)O)c1 (centres unmarked)"
value_type = "Bs ED50"
unit_of_measure = "µM"
observed = 460

[[record]]
molecule = "CC(C)CCCC(C)CCn1cc[n+](CC(P(=O)([O-])O)P(=O)(O)O)c1 (centres unmarked)"
value_type = "Bs ED50"
unit_of_measure = "µM"
observed = 12

[[record]]
molecule = "CC(C)CCCC(C)CCOc1cc[n+](CC(P(=O)([O-])O)P(=O)(O)O)cc1 (centres unmarked)"
value_type = "Bs ED50"
unit_of_measure = "µM"
observed = 14

[[record]]
molecule = "CC(C)CCCC(C)CCCc1ccc[n+](CC(P(=O)([O-])O)P(=O)(O)O)c1 (centres unmarked)"
value_type = "Bs ED50"
unit_of_measure = "µM"
observed = 5.2

